# Lookup of reported IC50 keyed by entry
- target: SARS-CoV-2 3CL protease (Severe acute respiratory syndrome coronavirus 2)
- experiment summary: biochemical
- experimental setup: 50% SARS-CoV-2 3CL protease inhibitory concentration; RapidFire MS; read-out: IC50

// worked examples, IC50 included
[
  {
    "molecule": "CC(C)(O)Cn1cc2cc(Nc3nc(=O)n(Cc4ncccn4)c(=O)n3Cc3cc(F)c(F)c(Cl)c3)c(Cl)cc2n1 [II-0241]",
    "IC50": "0.024 µM"
  },
  {
    "molecule": "CC(C)(Nc1nc(=O)n(Cc2ccc[nH]c2=O)c(=O)n1Cc1cc(F)c(F)c(F)c1)c1ccccc1F [II-0482]",
    "IC50": "0.41 µM"
  },
  {
    "molecule": "Cn1cnc(Cn2c(=O)nc(Nc3cc4cn(C)nc4cc3Cl)n(Cc3cc(F)c(F)c(F)c3)c2=O)n1 [Compound I-0421]",
    "IC50": "0.01 µM"
  }
]

Then this molecule:
INPUT: Provide one value: measured IC50 of Cc1cncc(-n2c(=O)nc(Nc3cc4cn(C)nc4cc3Cl)n(Cc3cc(F)c(F)c(F)c3F)c2=O)c1 [II-0164]
OUTPUT: 0.009 µM

----------
- Tested on: SARS-CoV-2
- experiment summary: microbe, parasite or virus in culture
- Format: cell-based
- experimental setup: Severe acute respiratory syndrome coronavirus 2, VeroE6/TMPRSS2, 72 h, 50% SARS-CoV-2 infected cell death inhibitory concentration; VeroE6/TMPRSS2 cells, 3 days culture, CellTiter-Glo 2.0
Listing of entries alongside the reported pEC50.
In simple prose, pEC50 is minus the logarithm base ten of a concentration in moles per litre.

Example cases with answers are listed next.
[
  {
    "compound": "Cn1cnc(Cn2c(=O)nc(Nc3cc4cn(C)nc4cc3Cl)n(Cc3cc(F)c(F)c(F)c3)c2=O)n1",
    "pEC50": 6.35
  },
  {
    "compound": "Cc1cncc(-n2c(=O)nc(Nc3ccc4nn(C)cc4c3)n(Cc3cc(F)c(F)cc3F)c2=O)c1",
    "pEC50": 5.72
  },
  {
    "compound": "Cc1cncc(-n2c(=O)nc(Nc3cc4cn(C)nc4cc3Cl)n(Cc3cc(F)c(F)cc3F)c2=O)c1",
    "pEC50": 6.88
  },
  {
    "compound": "Cc1cncc(-n2c(=O)nc(Nc3ccc4c(c3)CCO4)n(Cc3ccc(F)c(C#N)c3)c2=O)c1",
    "pEC50": 6.97
  },
  {
    "compound": "COc1ccc(Nc2nc(=O)n(-c3cnnc(C)c3)c(=O)n2Cc2cc(F)c(F)c(F)c2)cc1",
    "pEC50": 4.35
  }
]

INPUT: State recorded pEC50 with SARS-CoV-2, entry "Cc1cncc(-n2c(=O)nc(Nc3cc4cn(C)nc4cc3Cl)n(Cc3cc(Cl)c(F)cc3F)c2=O)c1" , no comment.
OUTPUT: 7.31

INPUT: Provide pEC50, system SARS-CoV-2, entry COc1ccc(Nc2nc(=O)n(CC3CCN(C)C3)c(=O)n2Cc2cc(F)c(F)c(F)c2)cc1 (stereo not shown)
OUTPUT: 4.44

INPUT: Answer with pEC50 of "Cn1cnc(Cn2c(=O)nc(Nc3cc4c(F)n(C)nc4cc3Cl)n(Cc3cc(F)c(F)cc3F)c2=O)n1" measured for SARS-CoV-2.
OUTPUT: 6.12

INPUT: Fetch value of pEC50 on SARS-CoV-2 for "Cn1cc2cc(Nc3nc(=O)n(-c4cncc(Cl)c4)c(=O)n3Cc3ccc(F)c(C#N)c3)c(Cl)cc2n1" .
OUTPUT: 6.90

INPUT: Would you please give the reported pEC50 of "Cc1cncc(-n2c(=O)nc(Nc3cc4cn(C)nc4cc3Cl)n(Cc3cc(F)c(F)c(Cl)c3)c2=O)c1" with SARS-CoV-2?
OUTPUT: 6.74

INPUT: Look up and report measured pEC50 (SARS-CoV-2) for the following compound: "CCn1cc2cc(Nc3nc(=O)n(-c4cncc(Cl)c4)c(=O)n3Cc3cc(C#N)ccc3Cl)ccc2n1"
OUTPUT: 6.45

INPUT: Fill in: pEC50 on SARS-CoV-2, entry "CC(C)(O)Cn1cc2cc(Nc3nc(=O)n(Cc4ncccn4)c(=O)n3Cc3cc(F)c(F)c(Cl)c3)c(Cl)cc2n1"
OUTPUT: 5.86

INPUT: Retrieve pEC50 on SARS-CoV-2; query "COC(=O)Nc1nc2cc(Cl)c(Nc3nc(=O)n(-c4cncc(C)c4)c(=O)n3Cc3ccc(F)c(C#N)c3)cc2s1"
OUTPUT: 6.61

INPUT: # lookup: SARS-CoV-2 pEC50, key = "Cn1cc2cc(Nc3nc(=O)n(-c4cncc(C#N)c4)c(=O)n3Cc3ccc(F)c(C#N)c3)ccc2n1"
OUTPUT: 5.36

INPUT: Fill in: pEC50 on SARS-CoV-2, entry "Cc1cncc(-n2c(=O)nc(Nc3ccc4nn(CC(F)F)cc4c3)n(Cc3cc(C#N)ccc3C)c2=O)c1"
OUTPUT: 6.66

INPUT: Jot down pEC50 (SARS-CoV-2) of "CCNC(=O)Cn1c(=O)nc(Nc2cc3cn(C)nc3cc2Cl)n(Cc2cc(F)c(F)c(F)c2)c1=O" .
OUTPUT: 4.94

INPUT: GET pEC50 | system: SARS-CoV-2 | item: "Cn1cnc(Cn2c(=O)nc(Nc3cc4cn(CC(F)F)nc4cc3Cl)n(Cc3cc(F)c(F)c(Cl)c3)c2=O)n1"
OUTPUT: 6.03

INPUT: Report its pEC50 with SARS-CoV-2 as the test system: "Cn1cnc(Cn2c(=O)nc(Nc3cc4cn(C)nc4cc3Cl)n(Cc3cc(F)c(F)c(F)c3)c2=O)c1"
OUTPUT: 5.99

INPUT: Find pEC50 for "O=c1[nH]cccc1Cn1c(=O)nc(Nc2cc3c(cc2Cl)nc2n3CCOC2)n(Cc2cc(F)c(F)c(F)c2)c1=O" on SARS-CoV-2 and write it down.
OUTPUT: 5.28

INPUT: With SARS-CoV-2 as the test system, provide measured pEC50 for this compound: "Cc1cncc(-n2c(=O)nc(Nc3cc4cn(C)nc4cc3Cl)n(Cc3cc(C#N)c(F)cc3Cl)c2=O)c1"
OUTPUT: 7.16

INPUT: Write down the reported pEC50 (system: SARS-CoV-2) of "N#Cc1cc(Cn2c(Nc3ccc4c(c3)CCO4)nc(=O)n(-c3cncc4ccccc34)c2=O)cc(F)c1F"
OUTPUT: 7.36

INPUT: Please indicate recorded pEC50 of "Cc1cncc(-n2c(=O)nc(Nc3cc4cn(CC(F)F)nc4cc3Cl)n(Cc3cc(F)c(F)c(C#N)c3)c2=O)c1" measured with SARS-CoV-2.
OUTPUT: 6.88

INPUT: Please tell me the measured pEC50 for "Cc1cncc(-n2c(=O)nc(Nc3ccc4nn(CC(F)F)cc4c3)n(Cc3cc(C#N)c(F)cc3C)c2=O)c1" ; system: SARS-CoV-2.
OUTPUT: 6.77

INPUT: Report pEC50 on SARS-CoV-2 for this entry: "Cn1cc2cc(Nc3nc(=O)n(-c4cncc(Cl)c4)c(=O)n3Cc3cc(C#N)ccc3Cl)ccc2n1"
OUTPUT: 6.62

INPUT: Print SARS-CoV-2 pEC50 for "O=c1[nH]cccc1Cn1c(=O)nc(Nc2cc3ccnn3cc2Cl)n(Cc2cc(F)c(F)c(F)c2)c1=O" .
OUTPUT: 5.45
